Items are presented alongside their recorded EC50.
# Test system: HCV 1b-377-neo replicon cells
# procedure.details: HCV replicon assay, HCV 1b-377-neo replicon cells (1b FRET)
# Format: cell-based, Hepatitis C virus genotype 1b
# condition.details: HCV 1b-377-neo replicon cells; HCV 1b genotype; read-out: EC50 range against HCV 1b (Table 2, Range)

Reference set, count: 5
>>> measurement("CC[C@H](NC(=O)OC)C(=O)N1CCC[C@H]1c1ncc(-c2ccc(-c3ccc(-c4cnc([C@@H]5CCCN5C(=O)[C@H](CC)NC(=O)OC)[nH]4)cc3)cc2)[nH]1")
"1 to 99 nM"
>>> measurement("O=C(N[C@@H](C(=O)N1CCC[C@H]1c1ncc(-c2ccc(-c3ccc(-c4cnc([C@@H]5CCCN5C(=O)[C@H](NC(=O)[C@H]5CCCO5)c5ccccc5)[nH]4)cc3)cc2)[nH]1)c1ccccc1)[C@H]1CCCO1")
"0.001 to 0.999 nM"
>>> measurement("COC(=O)N[C@@H](C(=O)N1CCC[C@H]1c1ncc(-c2ccc(-c3ccc(-c4cnc([C@@H]5CCCN5C(=O)[C@H](C)NC(C)=O)[nH]4)cc3)cc2)[nH]1)c1ccccc1")
"0.001 to 0.999 nM"
>>> measurement("O=C(Cc1ccccc1)N1CCC[C@H]1c1ncc(-c2ccc(-c3ccc(-c4cnc([C@@H]5CCCN5C(=O)Cc5ccccc5)[nH]4)cc3)cc2)[nH]1")
"0.001 to 0.999 nM"
>>> measurement("CCC[C@H](NC(=O)OC)C(=O)N1CCC[C@H]1c1ncc(-c2ccc(-c3ccc(-c4cnc([C@@H]5CCCN5C(=O)[C@@H](NC(=O)OC)C(C)C)[nH]4)cc3)cc2)[nH]1")
"1 to 99 nM"

For the compound CN(C)[C@@H](C(=O)N1CCC[C@H]1c1nc(-c2ccc(-c3ccc(-c4cn(C)c([C@@H]5CCCN5C(=O)[C@@H](c5ccccc5)N(C)C)n4)cc3)cc2)cn1C)c1ccccc1 (single isomer, unassigned) [151 isomer 2] , report EC50. 100 to 999 nM

For the compound `CCN(CC)[C@@H](C(=O)N1CCC[C@H]1c1ncc(-c2ccc(-c3ccc(-c4cnc([C@@H]5CCCN5C(=O)C5(NC(=O)OC)CCCC5)[nH]4)cc3)cc2)[nH]1)c1ccccc1` , report EC50. 1 to 99 nM

For the compound CN(C)C(C(=O)N1CCCC1c1nc(-c2ccc(-c3ccc(-c4cnc(C5CCCN5C(=O)Cc5csc6ccccc56)[nH]4)cc3)cc2)c[nH]1)c1ccccc1 (stereo not shown) , report EC50. 0.001 to 0.999 nM

For the compound `COC(=O)N[C@@H](C(=O)N1CCC[C@H]1c1ncc(-c2ccc(-c3ccc(-c4cnc([C@@H]5CCCN5C(=O)Cc5ccccc5CN5CCCC5)[nH]4)cc3)cc2)[nH]1)c1ccccc1` , report EC50. 0.001 to 0.999 nM

For the compound CCN(CC)[C@@H](C(=O)N1CCC[C@H]1c1ncc(-c2ccc(-c3ccc(-c4cnc([C@@H]5CCCN5C(=O)[C@@H](NC(=O)OC)C(C)C)[nH]4)cc3)cc2)[nH]1)C(C)(C)C [Example M91x] , report EC50. 1 to 99 nM

For the compound O=C(C(c1ccccc1)N1CC[C@H](F)C1)N1CCC[C@H]1c1ncc(-c2ccc(-c3ccc(-c4cnc([C@@H]5CCCN5C(=O)C(c5ccccc5)N5CC[C@H](F)C5)[nH]4)cc3)cc2)[nH]1 (stereo partly shown) [Example 19] , report EC50. 0.001 to 0.999 nM

For the compound `CCN(CC)[C@@H](C(=O)N1CCC[C@H]1c1ncc(-c2ccc(-c3ccc(-c4cnc([C@@H]5CCCN5C(=O)[C@@H]5CCCO5)[nH]4)cc3)cc2)[nH]1)c1ccccc1` , report EC50. 0.001 to 0.999 nM

For the compound `CCC[C@H](NC(=O)OC)C(=O)N1CCC[C@H]1c1ncc(-c2ccc(-c3ccc(-c4cnc([C@@H]5CCCN5C(=O)[C@H](C)NC(=O)OC)[nH]4)cc3)cc2)[nH]1` , report EC50. 1 to 99 nM

For the compound `COC(=O)N[C@@H](C(=O)N1CCC[C@H]1c1ncc(-c2ccc(-c3ccc(-c4cnc([C@@H]5CCCN5C(=O)Cc5cc(C)no5)[nH]4)cc3)cc2)[nH]1)c1ccccc1` , report EC50. 0.001 to 0.999 nM

For the compound CN1CCN(C(C(=O)N2CCC[C@H]2c2ncc(-c3ccc(-c4ccc(-c5c[nH]c([C@@H]6CCCN6C(=O)[C@H]6CCCO6)n5)cc4)cc3)[nH]2)c2ccccc2)CC1 (stereo partly shown) , report EC50. 0.001 to 0.999 nM

For the compound `CC[C@@H](NC(=O)OC)C(=O)N1CCC[C@H]1c1ncc(-c2ccc(-c3ccc(-c4cnc([C@@H]5CCCN5C(=O)[C@@H](c5ccccc5)N(CC)CC)[nH]4)cc3)cc2)[nH]1` , report EC50. 1 to 99 nM

For the compound `COC(=O)N[C@@H](C(=O)N1CCC[C@H]1c1ncc(-c2ccc(-c3ccc(-c4cnc([C@@H]5CCCN5C(=O)[C@H]5CCC(=O)N5)[nH]4)cc3)cc2)[nH]1)c1ccccc1` , report EC50. 0.001 to 0.999 nM

For the compound `CN(C)[C@@H](C(=O)N1CCC[C@H]1c1ncc(-c2ccc(-c3ccc(-c4cnc([C@@H]5CCCN5C(=O)c5ccc(N6CCOCC6)cc5)[nH]4)cc3)cc2)[nH]1)c1ccccc1` , report EC50. 0.001 to 0.999 nM

For the compound CN(C)[C@@H](C(=O)N1CCC[C@H]1c1nc(-c2ccc(-c3ccc(-c4cn(C)c([C@@H]5CCCN5C(=O)[C@@H](c5ccccc5)N(C)C)n4)cc3)cc2)cn1C)c1ccccc1 (single isomer, unassigned) [151 isomer 1] , report EC50. 1 to 99 nM

----------
# Tested on: HCV 1b-377-neo replicon cells
# procedure.details: HCV replicon assay, HCV 1b-377-neo replicon cells (1b FRET)
# Format: cell-based, Hepatitis C virus genotype 1b
# condition.details: HCV 1b-377-neo replicon cells; HCV 1b genotype; read-out: EC50 range against HCV 1b (Table 2, Range)
measure.name: EC50

Reference set, count: 5
>>> measurement("CN(C)[C@@H](C(=O)N1CCC[C@H]1c1ncc(-c2ccc(-c3ccc(-c4cnc([C@@H]5CCCN5C(=O)C5CCN(C(=O)OC(C)(C)C)CC5)[nH]4)cc3)cc2)[nH]1)c1ccccc1 [Example 94-34]")
"1000 to 99000 pM"
>>> measurement("C[C@@](O)(C(=O)N1CCC[C@H]1c1ncc(-c2ccc(-c3ccc(-c4cnc([C@@H]5CCCN5C(=O)[C@@](C)(O)c5ccccc5)[nH]4)cc3)cc2)[nH]1)c1ccccc1 [Example 3]")
"1 to 999 pM"
>>> measurement("CCN(CC)[C@@H](C(=O)N1CCC[C@H]1c1ncc(-c2ccc(-c3ccc(-c4cnc([C@@H]5CCCN5C(=O)C5(NC(=O)OC)CCC5)[nH]4)cc3)cc2)[nH]1)c1ccccc1 [Example M41]")
"1000 to 99000 pM"
>>> measurement("COC(=O)N[C@H](C(=O)N1CCC[C@H]1c1ncc(-c2ccc(-c3ccc(-c4cnc([C@@H]5CCCN5C(=O)CC(C)C)[nH]4)cc3)cc2)[nH]1)C(C)C [Example M81]")
"100000 to 999000 pM"
>>> measurement("COC(=O)N[C@@H](C(=O)N1CCC[C@H]1c1ncc(-c2ccc(-c3ccc(-c4cnc([C@@H]5CCCN5C(=O)[C@@H]5C[C@@H]6C[C@@H]6N5)[nH]4)cc3)cc2)[nH]1)c1ccccc1 [Example 83]")
"1 to 999 pM"

For the compound COC(=O)N[C@@H](C(=O)N1CCC[C@H]1c1ncc(-c2ccc(-c3ccc(-c4cnc([C@@H]5CCCN5C(=O)[C@@H]5C[C@H](F)CN5)[nH]4)cc3)cc2)[nH]1)c1ccccc1 [Example 79] , report EC50. 1 to 999 pM

For the compound O=C(OCc1ccccc1)N1CCN(C(C(=O)N2CCC[C@H]2c2ncc(-c3ccc(-c4ccc(-c5c[nH]c([C@@H]6CCCN6C(=O)[C@H]6CCCO6)n5)cc4)cc3)[nH]2)c2ccccc2)CC1 (single isomer, unassigned) [Example 103-5] , report EC50. 1 to 999 pM

For the compound COC(=O)N[C@@H](C(=O)N1CCC[C@H]1c1ncc(-c2ccc(-c3ccc(-c4cnc([C@@H]5CCCN5C(=O)[C@H]5CCN(Cc6ccccc6)C5)[nH]4)cc3)cc2)[nH]1)c1ccccc1 [Example 84-28] , report EC50. 1 to 999 pM

For the compound COC(=O)N[C@@H](C(=O)N1CCC[C@H]1c1ncc(-c2ccc(-c3ccc(-c4cnc([C@@H]5CCCN5C(=O)[C@H](OC)c5ccccc5)[nH]4)cc3)cc2)[nH]1)c1ccccc1 [Example 84-80] , report EC50. 1 to 999 pM

For the compound COC(=O)N[C@@H](C(=O)N1CCC[C@H]1c1ncc(-c2ccc(-c3ccc(-c4cnc([C@@H]5CCCN5C(=O)Cc5ccccn5)[nH]4)cc3)cc2)[nH]1)c1ccccc1 [Example 46] , report EC50. 1 to 999 pM

For the compound C[C@@H](O)C(=O)N1CCC[C@H]1c1ncc(-c2ccc(-c3ccc(-c4cnc([C@@H]5CCCN5C(=O)[C@@H](C)O)[nH]4)cc3)cc2)[nH]1 [Example 15] , report EC50. 1000 to 99000 pM

For the compound O=C(C(c1ccccc1)N1CC[C@H](F)C1)N1CCC[C@H]1c1ncc(-c2ccc(-c3ccc(-c4cnc([C@@H]5CCCN5C(=O)C(c5ccccc5)N5CC[C@H](F)C5)[nH]4)cc3)cc2)[nH]1 (stereo partly shown) [Example 20] , report EC50. 1000 to 99000 pM

For the compound CCN(CC)[C@@H](C(=O)N1CCC[C@H]1c1ncc(-c2ccc(-c3ccc(-c4cnc([C@@H]5CCCN5C(=O)C5(NC(=O)OC)CC5)[nH]4)cc3)cc2)[nH]1)c1ccccc1 [Example M33] , report EC50. 1000 to 99000 pM

For the compound O=C(C(c1ccccc1)N1CCC(c2ccccc2)CC1)N1CCC[C@H]1c1ncc(-c2ccc(-c3ccc(-c4c[nH]c([C@@H]5CCCN5C(=O)[C@H]5CCCO5)n4)cc3)cc2)[nH]1 (stereo partly shown) [Example 103-2] , report EC50. 1 to 999 pM

For the compound O=C([C@@H](c1ccccc1)N1CCCC1)N1CCC[C@H]1c1ncc(-c2ccc(-c3ccc(-c4cnc([C@@H]5CCCN5C(=O)[C@@H](c5ccccc5)N5CCOCC5)[nH]4)cc3)cc2)[nH]1 [Example 96] , report EC50. 1 to 999 pM

For the compound COC(=O)N[C@@H](C(=O)N1CCC[C@H]1c1ncc(-c2ccc(-c3ccc(-c4cnc([C@@H]5CCCN5C(=O)[C@H](NC(=O)OC)c5ccccc5)[nH]4)cc3C)nc2)[nH]1)c1ccccc1 [Example 138] , report EC50. 1 to 999 pM

For the compound COC(=O)N[C@@H](C(=O)N1CCC[C@H]1c1ncc(-c2ccc(-c3ccc(-c4cnc([C@@H]5CCCN5C(=O)c5ccccn5)[nH]4)cc3)cc2)[nH]1)c1ccccc1 [Example 67] , report EC50. 1 to 999 pM

For the compound COC(=O)N[C@@H](C(=O)N1CCC[C@H]1c1ncc(-c2ccc(-c3ccc(-c4cnc([C@@H]5CCCN5C(=O)c5cnco5)[nH]4)cc3)cc2)[nH]1)c1ccccc1 [Example 72] , report EC50. 1000 to 99000 pM

For the compound O=C(OCc1ccccc1)N1CCN(C(C(=O)N2CCC[C@H]2c2ncc(-c3ccc(-c4ccc(-c5c[nH]c([C@@H]6CCCN6C(=O)[C@H]6CCCO6)n5)cc4)cc3)[nH]2)c2ccccc2)CC1 (single isomer, unassigned) [Example 103-6] , report EC50. 1000 to 99000 pM
